FYI, the data here is from FireProtDB (doi:10.1016/j.jmb.2009.11.038).

B1: H8S, Q5NV88 (parent)
chain: NFMLTQPHSVSESPGKTVTISCTRSSGSIASNYVQWYQQRPGSSPTTVIYEDNQRPSGVPDRFSGSIDSSSNSASLTISGLKTEDEADYYCQSYDSSN

# Variants of: B1
# condition: Homo sapiens; pH 7.5; Thermal; Fluorescence; Sodium phosphate 20mM; transition: 2; structure 2W0K; whole UniProt chain shown
unfolding enthalpy (calorimetric) values by entry
Number only, in kcal/mol; omit the unit.

NFMLTQPSSVSESPGKTVTISCTRSSGSIASNYVQWYQQRPGSSPTTVIYEDNQRPSGVPDRFSGSIDSSSNSASLTISGLKTEDEADYYCQSYDSSN	84.4
NFMLTQSHSVSESPGKTVTISCTRSSGSIASNYVQWYQQRPGSSPTTVIYEDNQRPSGVPDRFSGSIDSSSNSASLTISGLKTEDEADYYCQSYDSSN	79.5
NFMLTQSSSVSESPGKTVTISCTRSSGSIASNYVQWYQQRPGSSPTTVIYEDNQRPSGVPDRFSGSIDSSSNSASLTISGLKTEDEADYYCQSYDSSN	79.4

The record that follows has no unfolding enthalpy (calorimetric) shown yet.
Data request: Please look at this variant and report its unfolding enthalpy (calorimetric): `NFMLTQPPSVSESPGKTVTISCTRSSGSIASNYVQWYQQRPGSSPTTVIYEDNQRPSGVPDRFSGSIDSSSNSASLTISGLKTEDEADYYCQSYDSSN`
Data returned: 84.8
